Provide the reported apparent KD of MS2 coat protein of each item.
# System: MS2 coat protein
# Run description: apparent KD of MS2 coat protein; designed switch direction (-1 OFF switch, 1 ON switch): -1; higher = weaker reporter binding
# Applied conditions: input ligand: microRNA oligo, concentration not stated
Answer with the number, then the unit.

Worked examples follow.
{"columns": ["Chain sequence", "apparent KD of MS2 coat protein"],
 "data": [
  ["AUCGUGCAGCUUUGCUGUACGAGUACAUGAGGAUCACCCAUGUAGGAUAUGGUACGCUUUGCGUGCUAGAAGGAUAUGCGAUUG [EX ENG3 1.46] (Eterna round: R96, puzzle: Exclusion NG 3)", "0.0365 µM"],
  ["UUAAAUCAUGUAGGAUAUGCGUUGCGAAGCGAUGCAGAAGGACAUGAGGAUCACCCAUGUGCUAGCGUCCGCGUACGGAUGCAA [Mat - Exclusion NG 1 - Mod of JL - D60] (Eterna round: R96, puzzle: Exclusion NG 1)", "0.0653 µM"]
]}

Fill in apparent KD of MS2 coat protein for each of the 2 sequences listed.
1. UACAUGAGGAUCACCCAUGUUUUGUCGUGUAUGGUAUUUAUCUAGGAUAUCAUUGUAUUUAUUUAUGAGAAGGAGAAUAUUAAU [JMF's solution 96] (Eterna round: R96, puzzle: Exclusion NG 3)
2. UCUCUUGGGCAAGGAUAUCCUGUGCGGUUCCGGCUCGUGUCUGUCACAUGAGGAUCACCCAUGUGGGAGAAGGUGCCUGCGGUC [Design 81] (Eterna round: R96, puzzle: Exclusion NG 2)

Result block:
1: 0.024 µM; 2: 0.00994 µM

* * *

Provide the reported apparent KD of MS2 coat protein of each item.
# System: MS2 coat protein
# Run description: apparent KD of MS2 coat protein, switch ON state; designed switch direction (-1 OFF switch, 1 ON switch): 1; higher = weaker reporter binding
# Applied conditions: FMN input: 0 or 200 uM; Eterna round: R93 (includes R88 designs)
Answer with the number, then the unit.

Worked examples follow.
{"columns": ["Chain sequence", "Measured"],
 "data": [
  ["GAAGACAUAGUUCAGGAUAUAGGAAUAGUCACAUGAGGAUCACCCAUGUGCAUUUAUAUGCGCGCUUAGAAGGGAGGUAGUUAUA [SameState2 Malc#21]", "24.2 nM"],
  ["AAAAAACAUGAGGAUCACCCAUGUGAAAAAAUCGCAGGAUAUCCCUUUUUUAAAUGGGAGGGAGAAGGGUGAAAAA [Nob's Hobby 15 - Jieux - Same State 1]", "40.3 nM"],
  ["AGAAGACAUGAGGAUCACCCAUGUGGGAAUAUGGGAGGAUAUACAAAGACGAGAGUCAGAGUAGAAGGCCUAGGCC [salish99-ss1-110]", "49.8 nM"]
]}

Next sequence, please.
Query block: // fetch apparent KD of MS2 coat protein given entry AAAAACAUAGUUCAGGAUAUGGUAAUAGUCACAUGAGGAUCACCCAUGUUCAUUUAUAUGAGCGAUCAGAAGGGAGGUAAAAAAA [Mat - Same state - Malcolm Mod - D115]
Result block: 124 nM

* * *

Provide the reported apparent KD of K4 kissing-loop reporter of each item.
# Tested on: K4 kissing-loop RNA reporter;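 further: bound reporter read as fluorescence of individual clusters on recovered sequencing chips by microscopy, with normalized cluster intensities fitted with a binding model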
# Run description: apparent KD of K4 kissing-loop reporter; higher = weaker reporter binding
# Applied conditions: Eterna round: R107; input ligand: FMN 200 uM
One number for each entry, in nM.

{"columns": ["Chain sequence", "Output unit", "Measured"],
 "data": [
  ["UCCUGCUGUCAGCCACGAAAGUGGAUUGAUACCAGAGUCGAAAGACUCCCUUGGCAGCGAGUGAUGUUCGCAGCAGGUAAAUAAA [MatMod 3 - Jieux - Exclusion - Theophylline A]", "nM", 358]
]}

Fill in apparent KD of K4 kissing-loop reporter for each of the 5 sequences listed.
1. UAGCUCUACAGAAGGAGCGACGUUCUUAGACAGUGAUGUUGUCUAUAGUGAAUAUAGGAACGUCAGGUAGGUCGCUGUAGAGCUA [Arg B SS t11]
2. ACGAUCAUGGCAGGAUAUACGAAUGCAUUAGGGCUGCCAGUGAUGUUGGUGGACCGAGGACGUAGAGUAGAAGGGCCGACUUAAA [Leonmain]
3. GUCGGCCGCGCGCAAGCGCGGCCGGCCGAUACCAGCGCGCCGGUGCGCCCUUGGCAGCGGCACCGAGUGAUGUUCGGUCAGACGA [#2 Same State - Theophylline A Attempt #6 (HarryS)]
4. GGAUAGGAUAGAGGAUAUGGCUUAUGCAGAAAUAACUUAUUGUGUAAAUCCAUAGGGAGUGAUGUUCCAGAAGGCUGUCCUAUCG [MatMod 16 - Jieux - Exclusion - FMN B]
5. CCAUUCAGUUACGAUACCAGUCUAAUAUAUUUGAUCAAAACCCUCGCCGAGUGAUGUUCGGACCCUUGGCAGCGUCUGGGACAGG [xxcetmullin]

Result block:
213
138
407
821
481

* * *

Provide the reported apparent KD of MS2 coat protein of each item.
# Tested on: MS2 coat protein
# Run description: apparent KD of MS2 coat protein; designed switch direction (-1 OFF switch, 1 ON switch): 1; higher = weaker reporter binding
# Applied conditions: input ligand: none
Answers are plain numbers, in nM.

Worked examples follow.
{"columns": ["Chain sequence", "Target desc", "Measured property", "Measured"],
 "data": [
  ["AUAGUUGCCGAAGGAUAUGAUGAGGAUCACCCAUCAGAAGGUUGGCUAUUGGGCUGACAUGAGGAUCACCCAUGUUUCGGUGUU (Eterna round: R96, puzzle: Same State NG 1)", "MS2 coat protein", "apparent KD of MS2 coat protein", 29.1],
  ["AGCCGAGACUGAGGAUAUUUAAAUCUACAUGAGGAUCACCCAUGUAACAACACGUGGUAGUGAUUGAAGAAGGCGGCUCGGCGC [Omei SS(NG)2 Cv2] (Eterna round: R96, puzzle: Same State NG 2)", "MS2 coat protein", "apparent KD of MS2 coat protein", 404]
]}

Next sequence, please.
Query block: // fetch apparent KD of MS2 coat protein given entry UUUAAACAUGAGGAUCACCCAUGUUUUUUUAUGGGAGGAUAUCUAAGUUAAUUAUAUUAAGGAGAAGGCCUAUUUU (Eterna round: R96, puzzle: Same State 1)
Result block: 145

* * *

# Tested on: MS2 coat protein
# Run description: apparent KD of MS2 coat protein; designed switch direction (-1 OFF switch, 1 ON switch): -1; higher = weaker reporter binding
# Applied conditions: input ligand: none
Measured property: apparent KD of MS2 coat protein

{"columns": ["Chain sequence", "Target desc", "apparent KD of MS2 coat protein"],
 "data": [
  ["ACAUGAGGAUCACCCAUGUACAGGGUUUAGUUUCAUCGUUUGAAGGAUAUACACUGUUAGUUGUCGUAGAAGGUCACUGAUUGG [JR_ExcNG3_Sub010] (Eterna round: R96, puzzle: Exclusion NG 3)", "MS2 coat protein", "130 nM"],
  ["GCGCCAUCGUGAGAUGGCGUAAUUACAUGAGGAUCACCCAUGUAGGAUAUCGAUUGCUUUGCAGUCGAGAAGGGCGUGAUAAUU [JL ENG3 3.70] (Eterna round: R96, puzzle: Exclusion NG 3)", "MS2 coat protein", "75.5 nM"],
  ["AGAAGUAUAGGAUAUACGUCUGCGCACAUGAGGAUCACCCAUGUCGUGUUCCGUGGCAGAGUAGAAGGGUACGGAC [EX5 B.11] (Eterna round: R97, puzzle: Exclusion 5)", "MS2 coat protein", "219 nM"],
  ["GCGCGGCGUGUAGGAUAUGCGCGCGGGUCGCGCGCAGAAGGACAUGAGGAUCACCCAUGUGGCGCGCUUGGCGCGCCGCCGCGC [-48, -45 kcal and 14% A] (Eterna round: R96, puzzle: Exclusion NG 1)", "MS2 coat protein", "12.9 nM"],
  ["UGCAGACGAGGAUAUGAUCAAUAAUACAUGAGGAUCACCCAUGUAAUACUGAUCCAUGGAUCAGAAGGUGUCUGCA [E5/5-B2] (Eterna round: R97, puzzle: Exclusion 5)", "MS2 coat protein", "17.5 nM"],
  ["UUAAUUACGGUGCUUUAACCUCACAUGAGGAUCACCCAUGUGCAGGAUAUCAGCUCGUUUAGAGCUGAGAAGGGCACUGCACCG [ExNG3/11-A2] (Eterna round: R96, puzzle: Exclusion NG 3)", "MS2 coat protein", "13.5 nM"],
  ["GGAGGACGAGCAGGAUAUUUUCACAUGAGGAUCACCCAUGUGUACUCAGGGUAAUCCUCCGCCGAAAAGAAGGGUUCGGAAUAA [Mat - Exclusion NG 2 - Mod of JL - D81] (Eterna round: R96, puzzle: Exclusion NG 2)", "MS2 coat protein", "74.1 nM"],
  ["UGCAGACGAGGAUAUAGAUUUGAUAACAUGAGGAUCACCCAUGUGAUCGAUAGAUCAGAUUUAGAAGGUGUCUGCA [E5/8-B2] (Eterna round: R97, puzzle: Exclusion 5)", "MS2 coat protein", "431 nM"]
]}

Next sequence, please.
Query block: // fetch apparent KD of MS2 coat protein given entry GAUAUGCGUGUGAGGAUAUUCGACGCGCAAACGGAGAAGAAGGCACAUGAGGAUCACCCAUGUGGAGGGAAGAA [BmEX4 A.13] (Eterna round: R97, puzzle: Brourd's mod of Exclusion 4)
Result block: 20.7 nM

Each recorded value in this set is attributed to the supplement of paper PMC9170038.
